RUN DESCRIPTION: Selectivity index, ratio of IC50 for cytotoxicity against human HMEC-1 cells to IC50 for cytotoxicity against human MDA-MB-231 cells
Format: toxicity, cell-based
STUDY CONDITIONS: HMEC-1 cells and MDA-MB-231 cells, read-out: Ratio IC50
READOUT: selectivity ratio
Lab note: record the figure alone, no unit after it.

CC12C(=O)C(C)(C(c3ccccc3)=C1c1ccccc1)C1C(=O)N(CCCCN3CCN(c4ccccn4)CC3)C(=O)C12 (stereo unspecified) = 2.41

Query: Consider the compound CC12C(=O)C(C)(C(c3ccccc3)=C1c1ccccc1)C1C(=O)N(CCCCN3CCN(c4ncccn4)CC3)C(=O)C12 (stereo unspecified) and give its measured selectivity ratio.
Result: 1.64

Query: Consider the compound CC12C(=O)C(C)(C(c3ccccc3)=C1c1ccccc1)C1C(=O)N(CCCCN3CCN(c4ccccc4F)CC3)C(=O)C12 (stereo unspecified) and give its measured selectivity ratio.
Result: 0.31

Query: Consider the compound CC12C(=O)C(C)(C(c3ccccc3)=C1c1ccccc1)C1C(=O)N(CCCCN3CCN(c4cccc(Cl)c4)CC3)C(=O)C12 (stereo unspecified) and give its measured selectivity ratio.
Result: 0.54

Query: Consider the compound COc1ccccc1N1CCN(CCCCN2C(=O)C3C(C2=O)C2(C)C(=O)C3(C)C(c3ccccc3)=C2c2ccccc2)CC1 (stereo unspecified) and give its measured selectivity ratio.
Result: 1.03

Query: Consider the compound CC12C(=O)C(C)(C(c3ccccc3)=C1c1ccccc1)C1C(=O)N(CCCCN3CCN(c4ccccc4Cl)CC3)C(=O)C12 (stereo unspecified) and give its measured selectivity ratio.
Result: 0.85
